Reported log10 of Ki values follow for various molecules
molecular target: Sigma non-opioid intracellular receptor 1 (Cavia porcellus, UniProt Q60492); experiment: Displacement of [3H]-(+)-pentazocine from sigma1 receptor in guinea pig brain membrane after 150 mins by liquid scintillation counting method
Sequence (Q60492 whole entry): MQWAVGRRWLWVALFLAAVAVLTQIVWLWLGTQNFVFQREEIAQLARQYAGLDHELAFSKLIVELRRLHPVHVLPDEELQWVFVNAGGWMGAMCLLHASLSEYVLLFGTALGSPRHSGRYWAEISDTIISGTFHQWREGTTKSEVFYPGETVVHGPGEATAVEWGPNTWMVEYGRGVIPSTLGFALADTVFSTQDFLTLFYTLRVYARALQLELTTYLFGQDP
Could you please treat all values as log10 of Ki in nM?

// solved cases for log10 of Ki follow
CCOC(=O)[C@]1(c2ccccc2)C[C@@H]1CN1CCC(O)(c2ccc(Cl)cc2)CC1 : 0.13
CC(C)OC(=O)[C@]1(c2ccccc2)C[C@@H]1CN1CCC(O)(c2ccc(Cl)cc2)CC1 : 1.30
CCCOC(=O)[C@]1(c2ccccc2)C[C@@H]1CN1CCC(O)(c2ccc(Cl)cc2)CC1 : 1.15

// switching to the query molecule
INPUT: Return reported log10 of Ki; argument: O=C(O)[C@@]1(c2ccccc2)C[C@@H]1CN1CCC(O)(c2ccc(Cl)cc2)CC1
OUTPUT: 2.65

---

molecular target: Sigma non-opioid intracellular receptor 1 (Cavia porcellus, UniProt Q60492); experiment: Displacement of [3H]-(+)-pentazocine from sigma1 receptor in guinea pig brain membrane after 150 mins by liquid scintillation counting method
valueType: pKi
Please express pKi as -log10 of the molar concentration.

// solved cases for pKi follow
CC(C)OC(=O)[C@]1(c2ccccc2)C[C@H]1CN1CCC(O)(c2ccc(Cl)cc2)CC1 : 7.37
CC(C)OC(=O)[C@@]1(c2ccccc2)C[C@H]1CN1CCC(O)(c2ccc(Cl)cc2)CC1 : 7.17
COC(=O)C1(c2ccccc2)CC1CN1CCC(O)(c2ccc(Cl)cc2)CC1 (single isomer, unassigned; (-)) : 8.25
CC(C)OC(=O)[C@@]1(c2ccccc2)C[C@@H]1CN1CCC(O)(c2ccc(Cl)cc2)CC1 : 8.15
COC(=O)[C@@]1(c2ccccc2)C[C@@H]1CN1CCC(O)(c2ccc(Cl)cc2)CC1 : 6.89
COC(=O)C1(c2ccccc2)CC1CN1CCC(O)(c2ccc(Cl)cc2)CC1 (racemic) : 7.84
CCOC(=O)[C@@]1(c2ccccc2)C[C@H]1CN1CCC(O)(c2ccc(Cl)cc2)CC1 : 7.35
CCCOC(=O)[C@@]1(c2ccccc2)C[C@H]1CN1CCC(O)(c2ccc(Cl)cc2)CC1 : 7.48

// switching to the query molecule
INPUT: Return reported pKi; argument: CCCN1CCC=C(c2cc(-c3ccc(C)cc3)no2)C1
OUTPUT: 8.37

---

target: D(2) dopamine receptor (Rattus norvegicus, UniProt P61169); assay: Displacement of [3H]-spiperone from dopamine D2 receptor in rat strriatum after 15 mins by liquid scintillation counting method
Sequence (P61169 whole entry): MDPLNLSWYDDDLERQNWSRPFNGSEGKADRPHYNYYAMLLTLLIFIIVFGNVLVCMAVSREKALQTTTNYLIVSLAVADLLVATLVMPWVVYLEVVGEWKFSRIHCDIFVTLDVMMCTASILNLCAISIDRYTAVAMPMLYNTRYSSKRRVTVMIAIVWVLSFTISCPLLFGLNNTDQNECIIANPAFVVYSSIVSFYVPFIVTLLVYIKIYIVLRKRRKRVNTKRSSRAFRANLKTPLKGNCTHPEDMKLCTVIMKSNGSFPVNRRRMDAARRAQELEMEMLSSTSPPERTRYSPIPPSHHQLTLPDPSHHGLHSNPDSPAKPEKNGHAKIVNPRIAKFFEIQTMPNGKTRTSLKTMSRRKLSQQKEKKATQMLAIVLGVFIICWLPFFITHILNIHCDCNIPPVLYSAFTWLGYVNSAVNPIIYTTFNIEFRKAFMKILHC
Field 'label' (enum: class 1 / class 0). Set to class 1 when Ki is strictly under 5 µM; else class 0.

COC(=O)C1(c2ccccc2)CC1CN1CCC(O)(c2ccc(Cl)cc2)CC1 (single isomer, unassigned; (-)) : class 1

INPUT: Criterion: Ki strictly below 5 µM. Is it met by COC(=O)C1(c2ccccc2)CC1CN1CCC(O)(c2ccc(Cl)cc2)CC1 (racemic) ?
OUTPUT: class 0

INPUT: Criterion: Ki strictly below 5 µM. Is it met by COC(=O)C1(c2ccccc2)CC1CN1CCC(O)(c2ccc(Cl)cc2)CC1 (single isomer, unassigned; (+)) ?
OUTPUT: class 1

INPUT: Criterion: Ki strictly below 5 µM. Is it met by COC(=O)[C@]1(c2ccccc2)C[C@H]1CN1CCC(O)(c2ccc(Cl)cc2)CC1 ?
OUTPUT: class 0

---

test: Enzymatic stability of the compound in mouse plasma assessed as half life; assay type: ADME, cell-free
valueType: half-life (h)
Please state the figure in h; there is no need to write the unit.

INPUT: Return reported half-life; argument: CC(C)OC(=O)[C@@]1(c2ccccc2)C[C@@H]1CN1CCC(O)(c2ccc(Cl)cc2)CC1
OUTPUT: 1.14

---

experiment: Chemical stability of the compound at pH 7.4 assessed as half life; type: physicochemical; conditions: buffer
valueType: half-life (h)
Please state the figure in h; there is no need to write the unit.

INPUT: Return reported half-life; argument: CC(C)OC(=O)[C@@]1(c2ccccc2)C[C@@H]1CN1CCC(O)(c2ccc(Cl)cc2)CC1
OUTPUT: 91

---

Reported pKi values follow for various compounds
assay: Displacement of [3H]-(+)-DTG from sigma2 receptor in guinea pig brain membrane after 120 mins by liquid scintillation counting method; type: cell membranes, Cavia porcellus
Please express pKi as -log10 of the molar concentration.

// solved cases for pKi follow
CC(C)OC(=O)[C@]1(c2ccccc2)C[C@@H]1CN1CCC(O)(c2ccc(Cl)cc2)CC1 : 6.68
O=C(CCCN1CCC(O)(c2ccc(Cl)cc2)CC1)c1ccc(F)cc1 : 7.80
CC(C)OC(=O)[C@@]1(c2ccccc2)C[C@@H]1CN1CCC(O)(c2ccc(Cl)cc2)CC1 : 5.74
CC(C)OC(=O)[C@]1(c2ccccc2)C[C@H]1CN1CCC(O)(c2ccc(Cl)cc2)CC1 : 6.67
CC(C)OC(=O)[C@@]1(c2ccccc2)C[C@H]1CN1CCC(O)(c2ccc(Cl)cc2)CC1 : 5.79
COC(=O)C1(c2ccccc2)CC1CN1CCC(O)(c2ccc(Cl)cc2)CC1 (racemic) : 7.21
CCCOC(=O)[C@]1(c2ccccc2)C[C@H]1CN1CCC(O)(c2ccc(Cl)cc2)CC1 : 7.14
CCOC(=O)[C@@]1(c2ccccc2)C[C@H]1CN1CCC(O)(c2ccc(Cl)cc2)CC1 : 6.04
CCOC(=O)[C@]1(c2ccccc2)C[C@H]1CN1CCC(O)(c2ccc(Cl)cc2)CC1 : 6.97
CCOC(=O)[C@]1(c2ccccc2)C[C@@H]1CN1CCC(O)(c2ccc(Cl)cc2)CC1 : 7.24

// switching to the query compound
INPUT: Return reported pKi; argument: COC(=O)[C@]1(c2ccccc2)C[C@H]1CN1CCC(O)(c2ccc(Cl)cc2)CC1
OUTPUT: 7.40

---

assay: Displacement of [3H]-(+)-DTG from sigma2 receptor in guinea pig brain membrane after 120 mins by liquid scintillation counting method; assay type: cell membranes, Cavia porcellus
valueType: Ki (µM)
Please state the figure in µM; there is no need to write the unit.

// solved cases for Ki follow
COC(=O)C1(c2ccccc2)CC1CN1CCC(O)(c2ccc(Cl)cc2)CC1 (single isomer, unassigned; (-)) : 0.0234
COC(=O)[C@@]1(c2ccccc2)C[C@@H]1CN1CCC(O)(c2ccc(Cl)cc2)CC1 : 0.142
CCOC(=O)[C@@]1(c2ccccc2)C[C@@H]1CN1CCC(O)(c2ccc(Cl)cc2)CC1 : 1.3
CCCOC(=O)[C@@]1(c2ccccc2)C[C@H]1CN1CCC(O)(c2ccc(Cl)cc2)CC1 : 0.29
CCCOC(=O)[C@]1(c2ccccc2)C[C@@H]1CN1CCC(O)(c2ccc(Cl)cc2)CC1 : 0.146
O=C(O)[C@@]1(c2ccccc2)C[C@@H]1CN1CCC(O)(c2ccc(Cl)cc2)CC1 : 0.65

INPUT: Return reported Ki; argument: CCCOC(=O)[C@@]1(c2ccccc2)C[C@@H]1CN1CCC(O)(c2ccc(Cl)cc2)CC1
OUTPUT: 0.171

INPUT: Return reported Ki; argument: COC(=O)C1(c2ccccc2)CC1CN1CCC(O)(c2ccc(Cl)cc2)CC1 (single isomer, unassigned; (+))
OUTPUT: 0.0219

---

assay: Enzymatic stability of the compound in human plasma assessed as half life; type: ADME, cell-free
valueType: half-life

INPUT: Return reported half-life; argument: CC(C)OC(=O)[C@@]1(c2ccccc2)C[C@@H]1CN1CCC(O)(c2ccc(Cl)cc2)CC1
OUTPUT: 65.2 h

---

Reported Ratio Ki values follow for various compounds
species on record: Cavia porcellus; assay: Selectivity index, ratio of Ki for sigma2 receptor in guinea pig brain membrane […]; assay type: cell membranes
Just the number, please, no unit after it.

INPUT: Return reported Ratio Ki; argument: CC(C)OC(=O)[C@]1(c2ccccc2)C[C@H]1CN1CCC(O)(c2ccc(Cl)cc2)CC1
OUTPUT: 5

INPUT: Return reported Ratio Ki; argument: CCOC(=O)[C@]1(c2ccccc2)C[C@@H]1CN1CCC(O)(c2ccc(Cl)cc2)CC1
OUTPUT: 42.2

---

test: Chemical stability of the compound at pH 1.3 assessed as half life; format: physicochemical; settings: buffer
valueType: half-life
Quote the value and follow it with the unit of measurement.

INPUT: Return reported half-life; argument: CC(C)OC(=O)[C@@]1(c2ccccc2)C[C@@H]1CN1CCC(O)(c2ccc(Cl)cc2)CC1
OUTPUT: 83.6 h

---

target: Sigma non-opioid intracellular receptor 1 (Cavia porcellus, UniProt Q60492); assay: Displacement of [3H]-(+)-pentazocine from sigma1 receptor in guinea pig brain membrane after 150 mins by liquid scintillation counting method
Reported pKi values follow for various compounds
Please express pKi as -log10 of the molar concentration.

// solved cases for pKi follow
CCCOC(=O)[C@@]1(c2ccccc2)C[C@@H]1CN1CCC(O)(c2ccc(Cl)cc2)CC1 : 7.89
COC(=O)C1(c2ccccc2)CC1CN1CCC(O)(c2ccc(Cl)cc2)CC1 (single isomer, unassigned; (+)) : 8.82

INPUT: Return reported pKi; argument: CCOC(=O)[C@]1(c2ccccc2)C[C@H]1CN1CCC(O)(c2ccc(Cl)cc2)CC1
OUTPUT: 7.35

INPUT: Return reported pKi; argument: COC(=O)[C@]1(c2ccccc2)C[C@H]1CN1CCC(O)(c2ccc(Cl)cc2)CC1
OUTPUT: 7.96

INPUT: Return reported pKi; argument: CCOC(=O)[C@@]1(c2ccccc2)C[C@@H]1CN1CCC(O)(c2ccc(Cl)cc2)CC1
OUTPUT: 7.28

INPUT: Return reported pKi; argument: CCCOC(=O)[C@]1(c2ccccc2)C[C@H]1CN1CCC(O)(c2ccc(Cl)cc2)CC1
OUTPUT: 7.92
